# methodSummary: anti-His antibody binders, primary screen, artefact control for SMM control protein annotation, biochemical, small-molecule microarray, 635 nm fluorescence (AID 1128);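 also: score merges feature fluorescence with signal-to-noise for each printed compound spot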
# measurementSetup: anti-His Alexa647 antibody binding, higher = more signal
readoutType: composite z-score

Here are 5 molecules together with their reported answers.
- Cc1cc2c(nc1C)CCCCN2CC(C)ON=C1[C@H]2CCn3c(=O)n(-c4ccccc4)c(=O)n3[C@H]2[C@H](O)[C@@H]2O[C@H]12 (stereo partly specified): 0.761
- Cn1c(=O)n2n(c1=O)[C@H]1[C@H](O)[C@@H]3O[C@@H]3C(=O)[C@H]1CC2: -0.0542
- COC(=O)[C@@H]1CC[C@@H](C)[C@H](c2ccc(Br)cc2)N1: 0.949
- CO[C@@H]1COC(=O)[C@H](CCSC)NC(=O)CC=C[C@@H](C)COC(=O)CCC[C@H]1C: -0.252
- CO[C@@H]1COC(=O)CC=C[C@H](C)[C@H](OC)COC(=O)[C@H](C)NC(=O)CC=C[C@H]1C: -0.347

Batch lookup, composite z-score per entry.
1. O=C1[C@H]2[C@H]3[C@H](O)[C@H](O)CC(=NOC[C@@H](O)COCc4ccco4)[C@H]3CC[C@H]2C(=O)N1C[C@@H]1CCCO1
2. C[C@@H]1C=CCC(=O)OC[C@H]2O[C@@H](C=C[C@@H]2O)[C@H](C)C=CCC(=O)OC1
3. CC(=O)OC[C@H]1O[C@H](CCON=C2[C@H]3CCn4c(=O)n(-c5ccccc5)c(=O)n4[C@H]3[C@H](O)[C@@H]3O[C@H]23)C=C[C@@H]1OC(C)=O
4. Cn1c(=O)n2n(c1=O)[C@H]1[C@H](O)[C@@H]3O[C@@H]3C(=NOCc3ccccc3)[C@H]1CC2
5. Cc1ccc(S(=O)(=O)N[C@H]2COC(=O)CC=C[C@@H](C)COC(=O)CC=C[C@@H]2C)cc1
6. O=C1CCCC(C2=CCCCC2=O)C1 (stereo unspecified)

result:
0.605
0.341
-0.405
0.192
-0.142
-0.496
